Reference source for all entries: paper PMC12104674

- protocol.text: Pyrotinib plasma pharmacokinetics with/without montmorillonite powder (Group A), LC-MS/MS, NCA
- Format: in vivo, healthy volunteers
- condition: human, plasma, oral; Group A, pyrotinib alone, 400 mg, day 1; geometric mean (geometric CV)
result.type: Cmax (ng/mL)
Numbers only, in ng/mL.

Quick note, Cmax for CCOc1cc2ncc(C#N)c(Nc3ccc(OCc4ccccn4)c(Cl)c3)c2cc1NC(=O)/C=C/[C@H]1CCCN1C [Pyrotinib] landed at 105

###

- protocol.text: Pyrotinib plasma pharmacokinetics with/without loperamide (Group B), LC-MS/MS, NCA
- Type: in vivo, healthy volunteers
- condition: human, plasma, oral; Group B, pyrotinib alone, 400 mg, day 1; median (minimum, maximum)
result.type: Tmax (h)
Numbers only, in h.

Quick note, Tmax for CCOc1cc2ncc(C#N)c(Nc3ccc(OCc4ccccn4)c(Cl)c3)c2cc1NC(=O)/C=C/[C@H]1CCCN1C landed at 4.98

###

- protocol.text: Pyrotinib plasma pharmacokinetics with/without loperamide (Group B), LC-MS/MS, NCA
- Format: in vivo, healthy volunteers
- condition: human, plasma, oral, 400 mg, Group B, pyrotinib alone, 400 mg, day 1; geometric mean (geometric CV); read-out: AUC0-∞
result.type: AUC(0-inf) (ng·h/mL)
One number for each entry, in ng·h/mL.

Quick note, AUC(0-inf) for CCOc1cc2ncc(C#N)c(Nc3ccc(OCc4ccccn4)c(Cl)c3)c2cc1NC(=O)/C=C/[C@H]1CCCN1C [Pyrotinib] landed at 2110

###

- protocol.text: Pyrotinib plasma pharmacokinetics with/without montmorillonite powder (Group A), LC-MS/MS, NCA
- Type: in vivo, healthy volunteers
- condition: human, plasma, oral
- Experimental: On day 1, all subjects received a single oral dose of 400 mg pyrotinib after breakfast. […] The analysis of plasma samples for pyrotinib was based on a validated and sensitive liquid chromatography-tandem mass spectrometry (LC-MS/MS) method with high specificity. The plasma samples were stored at −70°C and analyzed within a stability period of 176 days. […]
result.type: half-life
Enter the number, and then the unit.

Quick note, half-life for CCOc1cc2ncc(C#N)c(Nc3ccc(OCc4ccccn4)c(Cl)c3)c2cc1NC(=O)/C=C/[C@H]1CCCN1C landed at 16.3 h

###

- protocol.text: Pyrotinib plasma pharmacokinetics with/without loperamide (Group B), LC-MS/MS, NCA
- Format: in vivo, healthy volunteers
- condition: human, oral; Group B, 400 mg pyrotinib + 4 mg loperamide, then 2 mg loperamide at 2 and 4 h, day 9; plasma pyrotinib; geometric mean (geometric CV); read-out: AUC0-t
result.type: AUC(0-t) (ng·h/mL)
One number for each entry, in ng·h/mL.

Quick note, AUC(0-t) for CCOc1cc2ncc(C#N)c(Nc3ccc(OCc4ccccn4)c(Cl)c3)c2cc1NC(=O)/C=C/[C@H]1CCCN1C landed at 2430

###

- protocol.text: Pyrotinib plasma pharmacokinetics with/without montmorillonite powder (Group A), LC-MS/MS, NCA
- Type: in vivo, healthy volunteers
- condition: human, plasma, oral, with montmorillonite powder vs. pyrotinib alone; read-out: time to maximum concentration earlier by
result.type: decrease in Tmax (h)
One number for each entry, in h.

Quick note, decrease in Tmax for CCOc1cc2ncc(C#N)c(Nc3ccc(OCc4ccccn4)c(Cl)c3)c2cc1NC(=O)/C=C/[C@H]1CCCN1C landed at 1.5

###

- protocol.text: Pyrotinib plasma pharmacokinetics with/without montmorillonite powder (Group A), LC-MS/MS, NCA
- Format: in vivo, healthy volunteers
- condition: human, plasma, oral, 400 mg, Group A, pyrotinib alone, 400 mg, day 1; geometric mean (geometric CV); read-out: AUC0-∞
result.type: AUC(0-inf)
Enter the number, and then the unit.

Quick note, AUC(0-inf) for CCOc1cc2ncc(C#N)c(Nc3ccc(OCc4ccccn4)c(Cl)c3)c2cc1NC(=O)/C=C/[C@H]1CCCN1C landed at 1880 ng·h/mL
